Biological target: S. aureus TrmD (Staphylococcus aureus, UniProt Q2FZ43)
Construct: made in house; host or cells: E. coli BL21
Sequence (Q2FZ43 whole entry): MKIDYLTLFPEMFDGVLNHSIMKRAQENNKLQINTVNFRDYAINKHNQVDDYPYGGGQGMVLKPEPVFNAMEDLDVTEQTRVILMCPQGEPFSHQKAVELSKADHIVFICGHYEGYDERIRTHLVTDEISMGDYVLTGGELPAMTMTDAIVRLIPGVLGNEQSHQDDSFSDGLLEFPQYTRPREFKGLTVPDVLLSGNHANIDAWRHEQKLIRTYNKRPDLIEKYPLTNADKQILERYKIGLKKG
Assay: nanoSAR direct-to-biology FP displacement screening of crude triazoles
Assay type: binding
Conditions: crude triazole at 1 μM, assuming full conversion; 500 nM TrmD, 10 nM tracer 4; read-out: % displaced tracer
Method: Next, we conducted an S. aureus TrmD-targeting nanoSAR study. For this, alkyne 7 was reacted on a 96 nmol scale with an in-house diversity-oriented azide library (N = 320, mean pairwise Tanimoto similarity = 0.11) designed to cover a large chemical fragment space, generating a panel of 320 crude triazoles ready for FP assay investigation. […] Fluorescence polarization (FP) assays were performed as follows. […]
Reported inhibition at 1 µM values are given for each entry in this list.
Kindly answer with a numeric value in %, unit omitted.

# input API: value(readout=inhibition at 1 µM, system=S. aureus TrmD (Staphylococcus aureus, UniProt Q2FZ43)) for record CCc1nc(C)c(Cn2cc(-c3c[nH]c4nc[nH]c(=O)c34)nn2)o1 [Compound 01G02]
# output 71

# input Entry O=c1[nH]cnc2[nH]cc(-c3cn(-c4cccc5cn[nH]c45)nn3)c12 [Compound 02A05] please
# output 1.22

# input Entry O=c1[nH]cnc2[nH]cc(-c3cn(CCN4CCOCC4)nn3)c12 [Compound 01E07] please
# output 34

# input Entry O=c1[nH]cnc2[nH]cc(-c3cn(-c4ccccc4)nn3)c12 [Compound 04F04, O=C1NC=NC=2NC=C(C=3N=NN(c4ccccc4)C3)C12] please
# output 33

# input Entry O=c1[nH]cnc2[nH]cc(-c3cn(Cc4cccnn4)nn3)c12 [Compound 01A03, O=C1NC=NC=2NC=C(C=3N=NN(C3)Cc4nnccc4)C12] please
# output 65

# input Entry O=c1[nH]cnc2[nH]cc(-c3cn(CCc4c[nH]c5ccccc45)nn3)c12 [Compound 02C02] please
# output 56

# input Entry CCOC(=O)C12CC(Cn3cc(-c4c[nH]c5nc[nH]c(=O)c45)nn3)(C1)OC21CCOCC1 [Compound 03D04] please
# output 51

----------
Biological target: S. aureus TrmD (Staphylococcus aureus, UniProt Q2FZ43)
Construct: made in house; host or cells: E. coli BL21
Assay: nanoSAR direct-to-biology FP displacement screening of crude triazoles
Format: binding
Details: crude triazole at 1 μM, assuming full conversion; 500 nM TrmD, 10 nM tracer 4; read-out: % displaced tracer
Reported inhibition at 1 µM values are given for each entry in this list.
Kindly answer with a numeric value in %, unit omitted.

Sample records with inhibition at 1 µM:
molecule: O=c1[nH]cnc2[nH]cc(-c3cn(-c4ccc5c(c4)CNCC5)nn3)c12 [Compound 01G04]
readoutUnits: %
inhibition at 1 µM: 33

molecule: O=c1[nH]cnc2[nH]cc(-c3cn(Cc4cccc(Cl)c4)nn3)c12 [Compound 03D11]
readoutUnits: %
inhibition at 1 µM: 75

molecule: O=c1[nH]cnc2[nH]cc(-c3cn(C[C@@H]4CC[C@@H]5C[C@@H]5C4)nn3)c12 [Compound 03A07]
readoutUnits: %
inhibition at 1 µM: 84

molecule: O=c1[nH]cnc2[nH]cc(-c3cn(Cc4noc5c4CCC5)nn3)c12 [Compound 01C04]
readoutUnits: %
inhibition at 1 µM: 41

molecule: CO[C@H]1COC[C@@H]1n1cc(-c2c[nH]c3nc[nH]c(=O)c23)nn1 [Compound 04D03]
readoutUnits: %
inhibition at 1 µM: 37

# input Requested field: inhibition at 1 µM. Item: O=c1[nH]cnc2[nH]cc(-c3cn([C@H]4CC5(CCC5)Oc5ccc(F)cc54)nn3)c12 [Compound 03B06]
# output 70

# input Entry C[C@@H]1C[C@H](n2cc(-c3c[nH]c4nc[nH]c(=O)c34)nn2)c2ccsc2S1(=O)=O [Compound 03D02] please
# output 27

# input Entry COc1cccc(C2(n3cc(-c4c[nH]c5nc[nH]c(=O)c45)nn3)CCC2)c1 [Compound 01A12] please
# output 10
